- System: A498
- Experimental Protocol: NCI tumour cell line growth inhibition, 48 h
The source made the active and inactive calls. Cut-off read from the data, not from the text of the source: active = GI50 up to about 1.1 µM and inactive = higher.

| Molecule | GI50 |
| --- | --- |
| COC(=O)CN1SC2(SC13C(C)(C)C(=O)C3(C)C)C(C)(C)C(=O)C2(C)C | 30 µM (inactive) |
| CC(=O)O[C@H]1C[C@H]2[C@@H](OC(C)=O)/C=C3\C[C@](C)(C(=O)[C@H](O)C(=C1C)C2(C)C)[C@@H](O)C[C@@H]3OC(=O)[C@H](O)[C@H](c1ccccc1)N(C)C | > 100 µM (inactive) |
| Clc1ncnc2c1nc(C#Cc1ccccc1)n2C1CCCCO1 (stereo not given) | 2.63 µM (inactive) |
| CC(C)(Br)C(Br)CC/C(=C/CBr)CBr.CC(C)(Br)C(Br)CC/C(=C\CBr)CBr (stereo not given) | 20.9 µM (inactive) |
| CCOP(=O)(OCC)/C(C#N)=C/c1ncc[nH]1 | > 100 µM (inactive) |
| CC(=O)OCCOCNC(=S)N/N=C(\C)c1cnccn1 | 58.6 µM (inactive) |
| CC[P+](c1ccccc1)(N(C)C)N(C)C | > 100 µM (inactive) |
| Clc1ccc(C2NN=C3c4ccccc4OCC32)cc1 (stereo not given) | 18.2 µM (inactive) |
| CCC(CS(=O)(=O)O)[N+](=O)[O-] (stereo not given) | > 100 µM (inactive) |
| CC(=O)c1c2c(cc3c1CC1(Cc4cc5c(cc4C1)C(=O)CCC5)C3)CCCC2 (stereo not given) | 0.822 µM (active) |

====

- System: SK-MEL-5
- Experimental Protocol: NCI tumour cell line growth inhibition, 48 h
Active and inactive are the calls of the source. No stated cut-off is given here; in the data, active = GI50 up to about 1.1 µM and inactive = higher.
Outcomes: true (1) for active, false (0) for inactive

| Molecule | Group Label |
| --- | --- |
| O=C1c2cccc3cccc(c23)C(=O)N1CCCN1CCN(CCCN2C(=O)c3cccc4cccc(c34)C2=O)CC1 | false (0) |
| Cc1ccc(N2C(=O)C(O)=C(C(=O)C(C)(C)C)C2c2ccc([N+](=O)[O-])cc2)cc1 (configuration not stated) | false (0) |
| CCCC(=O)NC(C(=O)OCC)(N1CCOCC1)C(F)(F)F (configuration not stated) | false (0) |
| CN(C)C(=O)NCCN1CCCCCc2ccccc21 | false (0) |
| O=c1cc(-c2ccccc2)oc2cc(OCC(O)COc3ccc4c(=O)cc(-c5ccccc5)oc4c3)ccc12 | false (0) |
| COCCOc1cc(C)cc(/C=C(C)/C=C/C2=C(C)CCCC2(C)C)n1 | false (0) |
| Cc1ccc2c(c1)NC(=O)C(N=[N+]=[N-])(c1ccccc1)C2=O (configuration not stated) | false (0) |
| CCN(CC)Cc1cc(Nc2c3ccccc3nc3c4ccccc4n(C)c23)ccc1O | false (0) |
| O=C(CCCl)NN=C1NCCN1 | false (0) |
| CCOc1cc(CCNC)c2c(ccc3ccc(OC)c(O)c32)c1OC | false (0) |
| CC1CC/C(=C\c2ccc(N(C)C)cc2)C2=C1C(c1ccc(N(C)C)cc1)NC(=S)N2 (configuration not stated) | false (0) |
| O=C1C=C2C(=NC34CCCCC3C(c3ccccc3)C3=C(c5ccccc5CC3)N24)c2ccccc21 (configuration not stated) | false (0) |
| NNC(=O)C(=O)NN=C(C(Cl)(Cl)CO)C(Cl)(Cl)CO | false (0) |
| CCN(CC)CCNc1ccc2nc(C)n3c4ccc(O)cc4c(=O)c1c23 | false (0) |
| Nc1nc(O)c2nc(CNc3ccc(C(=O)NC(CCC(=O)O)C(=O)O)cc3)cnc2n1 (configuration not stated) | false (0) |
| O=C(CCN1CCCC1)Nc1ccc2sc3ccccc3c(=O)c2n1 | false (0) |
| NC(=O)C(N)=O | false (0) |
| Cc1ccc(-c2nc3cc([N+](=O)[O-])ccc3[nH]2)cc1 | false (0) |
| CC(C)C(/N=C1\CC2CCC1(C(=O)Nc1ccccc1O)C2(C)C)c1ccccc1 (configuration not stated) | false (0) |
| O=c1cc(-c2ccccc2)[nH]c2ccc(N3CCOCC3)cc12 | true (1) |
| COc1ccc(N(C)CN(C)c2nc(N(C)C)nc(N(C)C)n2)cc1 | false (0) |
| COC(=O)[C@@]12C=CC(=O)[C@H]3C[C@@H](C(C(C)C)C1)[C@]32OC (some centres not stated) | false (0) |
| CN(C)c1ccc2nc3c(C(=O)O)cc(O)c(O)c3[o+]c2c1 | false (0) |
| CC(=O)Nc1ccc(N2C(=O)/C(=C\c3cccc(Oc4ccccc4)c3)SC2c2ccccc2)cc1 (configuration not stated) | false (0) |
| COC(=O)[C@@H]1CN(C(=O)CCc2ccccc2)C(=O)N1 | false (0) |
| O=C(O)Cc1ccc(-n2nnc3c(=O)[nH][nH]c(=O)c32)cc1 | false (0) |
| CC[P+](c1ccccc1)(N(C)C)N(C)C | false (0) |
